Kindly supply the reported hGLPIR cAMP EC50 ratio values for the records listed here.
- test.system: human GLP-1 receptor (human, UniProt P43220 24-463)
- method.summary: cell-based or functional assay
Numbered stars: 1 amine (or outer) side, 2 acyl side, 3 side chain; on linkers, the order of the positions; unused ones are H or OH. Square brackets hold non-standard residues; d marks the D form. Side chains are listed from the residue outwards. Ends that are not written are not given here. * marks the point of attachment. C20 diacid = O=C(O)CCCCCCCCCCCCCCCCCCC(=O)*; γGlu = O=C(O)[C@H](CCC(=O)[*:2])N[*:1]; AEEA = NCCOCCOCC(=O)O; Aib = CC(C)(N)C(=O)O

Some solved entries appear below for comparison.
binder | value.reported
YXEGTXTSDYSILLDKKAQXAFIEYLIEGG (Aib2; αMeF6; K17((2-[2-(2-Amino-ethoxy)-ethoxy]-acetyl)2-(γGlu)-CO-(CH2)18-CO2H); Aib20; C-terminal NH2) [Peptide 98] | 0.384
YXEGTXTSDYSIXLDEKAQXEFIXYLIEGGPSSG (Aib2; αMeF(2F)6; αMeL13; K17((2-[2-(2-Amino-ethoxy)-ethoxy]-acetyl)2-(γGlu)-CO-(CH2)16-CO2H); Aib20; D-Glu24; C-terminal NH2) [Peptide 219] | 1.03
Y[Aib]EGTFTSDYSILLDKIAQ[Aib]AFK([AEEA-AEEA-γGlu-C20 diacid])EYLIEGGPSSGAPPPS-NH2 [Peptide 33] | 0.000256
YXEGTXTSDYSIXLDEKAQXEFISYLIEGGPSSGAPPPS (Aib2; αMeF(2F)6; αMeL13; K17((2-[2-(2-Amino-ethoxy)-ethoxy]-acetyl)2-(γGlu)-CO-(CH2)18-CO2H); Aib20; C-terminal NH2) [Peptide 150] | 0.79
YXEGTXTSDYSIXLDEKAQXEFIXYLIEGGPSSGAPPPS (Aib2; αMeF(2F)6; αMeL13; K17((2-[2-(2-Amino-ethoxy)-ethoxy]-acetyl)2-CO-(CH2)16-CO2H); Aib20; D-Glu24; C-terminal NH2) [Peptide 214] | 1.74
YXEGTXTSDXSIXLDKKAQXEFIXYLIEGGPSSGAPPPS (Aib2; αMeF(2F)6; 4Pal10; αMeL13; K17((2-[2-(2-Amino-ethoxy)-ethoxy]-acetyl)-(γGlu)-(2-[2-(2-Amino-ethoxy)-ethoxy]-acetyl)-CO-(CH2)18-CO2H); Aib20; D-Glu24; C-terminal NH2) [Peptide 202] | 0.712

Take each entry in turn and give its hGLPIR cAMP EC50 ratio.
1. YXEGTXTSDLSILLDKKAQXAFIEYLIEGGPSSGAPPPS (Aib2; αMeF6; K17((2-[2-(2-Amino-ethoxy)-ethoxy]-acetyl)2-(γGlu)-CO-(CH2)18-CO2H); Aib20; C-terminal NH2) [Peptide 129]
2. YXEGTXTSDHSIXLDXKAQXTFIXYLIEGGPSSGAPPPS (Aib2; αMeF(2F)6; αMeL13; Dap16; K17((2-[2-(2-Amino-ethoxy)-ethoxy]-acetyl)2-(γGlu)-CO-(CH2)18-CO2H); Aib20; D-Glu24; C-terminal NH2) [Peptide 173]
3. YXEGTXTSDLSIXLDXKAQXAFIXXLIEGGPSSGAPPPS (not fully specified; Aib2; αMeF(2F)6; αMeL13; Orn16; K17((2-[2-(2-Amino-ethoxy)-ethoxy]-acetyl)2-(γGlu)-CO-(CH2)16-CO2H); Aib20; D-Glu24; αMeY25; C-terminal NH2) [Peptide 244]
4. YXEGTXTSDYSIXLDKKAQXEFIXYLIEGGPSSG (Aib2; αMeF6; αMeL13; K17((2-[2-(2-Amino-ethoxy)-ethoxy]-acetyl)2-(γGlu)-CO-(CH2)18-CO2H); Aib20; D-Glu24; C-terminal NH2) [Peptide 228]

Resp:
[0.543, 0.0373, 1.29, 1.1]

Take each entry in turn and give its hGLPIR cAMP EC50 ratio.
1. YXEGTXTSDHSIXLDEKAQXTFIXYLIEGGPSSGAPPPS (Aib2; αMeF(2F)6; αMeL13; K17((2-[2-(2-Amino-ethoxy)-ethoxy]-acetyl)2-(εK)-CO-(CH2)16-CO2H); Aib20; D-Glu24; C-terminal NH2) [Peptide 176]
2. YXEGTXTSDYSILLDXKAQXEFIXYLIEGGPSSGAPPPS (not fully specified; Aib2; αMeF(2F)6; Orn16; K17((2-[2-(2-Amino-ethoxy)-ethoxy]-acetyl)2-(γGlu)-CO-(CH2)16-CO2H); Aib20; D-Glu24; C-terminal NH2) [Peptide 248]
3. YXEGTXTSDYSIXLDKKAQXEFIXYLIEGGPSSGAPPPS (Aib2; αMeF(2F)6; αMeL13; K17((2-[2-(2-Amino-ethoxy)-ethoxy]-acetyl)2-(γGlu)-CO-(CH2)18-CO2H); Aib20; D-Glu24; C-terminal NH2) [Peptide 212]
4. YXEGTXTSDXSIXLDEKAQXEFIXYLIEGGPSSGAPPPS (Aib2; αMeF(2F)6; 4Pal10; αMeL13; K17((2-[2-(2-Amino-ethoxy)-ethoxy]-acetyl)2-(γGlu)-CO-(CH2)16-CO2H); Aib20; D-Glu24; C-terminal NH2) [Peptide 204]
5. YXEGTXTSDXSIXLDXKAQXEFIXXLIEGGPSSG (Aib2; αMeF(2F)6; 4Pal10; αMeL13; Orn16; K17((2-[2-(2-Amino-ethoxy)-ethoxy]-acetyl)2-(γGlu)-CO-(CH2)16-CO2H); Aib20; D-Glu24; αMeY25; C-terminal NH2) [Peptide 264]
6. YXEGTXTSDLSIXLDXKAQXTFIXXLIEGGPSSGAPPPS (not fully specified; Aib2; αMeF(2F)6; αMeL13; Orn16; K17((2-[2-(2-Amino-ethoxy)-ethoxy]-acetyl)2-(γGlu)-CO-(CH2)16-CO2H); Aib20; D-Glu24; αMeY25; C-terminal NH2) [Peptide 243]
7. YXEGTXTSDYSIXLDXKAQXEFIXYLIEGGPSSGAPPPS (Aib2; αMeF(2F)6; αMeL13; Dap16; K17((2-[2-(2-Amino-ethoxy)-ethoxy]-acetyl)2-(γGlu)-CO-(CH2)16-CO2H); Aib20; D-Glu24; C-terminal NH2) [Peptide 210]
8. YXEGTFTSDYSIXLDEKAQXAFIEYLLEGGPSSGAPPPS (Aib2; αMeL13; K17((2-[2-(2-Amino-ethoxy)-ethoxy]-acetyl)2-(γGlu)-CO-(CH2)18-CO2H); Aib20; C-terminal NH2) [Peptide 66]

Resp:
1. 0.0427
2. 0.8
3. 0.771
4. 0.689
5. 3.19
6. 1.22
7. 1.03
8. 0.255
